readout type: melting point (°C)

input: Which melting point value is on record for O=Cc1cnc2n1CCc1ccccc1C2=C1CCN(CCc2ccc(OCc3ccc4ccccc4n3)cc2)CC1 ?
output: 193.5

input: Ok, now O=C(O)c1cnc2n1CCc1ccccc1C2=C1CCN(CCc2ccc(OCc3ccc4ccccc4n3)cc2)CC1
output: 174.2

input: Same again, this time with COc1cc(CN2CCC(=C3c4ccccc4CCn4ccnc43)CC2)cc(OC)c1OCc1ccc2ccccc2n1
output: 214.8

input: Request: OC1Cn2ccnc2C(=C2CCN(CCc3ccc(OCc4ccc5ccccc5n4)cc3)CC2)c2ccsc21 (racemic)
output: 242.1
